Catalogue of activity change, less the hit threshold readings, one per entry.
# target.entity: Potassium voltage-gated channel subfamily KQT member 2 (Rattus norvegicus)
# assay.explanation: KCNQ2 potentiation in CHO cells – cell-based, FluxOR thallium flux, counter-screen for hERG block protector project, confirmation (AID 1942);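 further: normalized value minus buffer-control mean plus three SD of buffer wells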
# assay.setup: FluxOR thallium flux fluorescence, at 10 µM, stronger effect = higher value
About 580 (24%) of roughly 2,400 compounds were called active. A selection follows.
Give just the numeric value; % need not be written.

The measured activity change, less the hit threshold that "CCCSc1cc(NCCOC(C)=O)c([N+](=O)[O-])c2nonc12" showed for Potassium voltage-gated channel subfamily KQT member 2 (Rattus norvegicus) is -13.1

The measured activity change, less the hit threshold that "Cc1cc(=S)nc(-c2ccccn2)[nH]1" showed for Potassium voltage-gated channel subfamily KQT member 2 (Rattus norvegicus) is -4.4

The measured activity change, less the hit threshold that "O=C(/C=C/c1ccccc1)Nc1ccc(S(=O)(=O)N2CCOCC2)cc1" showed for Potassium voltage-gated channel subfamily KQT member 2 (Rattus norvegicus) is -12.6

The measured activity change, less the hit threshold that "COC(=O)CNc1nc(Cl)nc(Nc2ccc(C)cc2)n1" showed for Potassium voltage-gated channel subfamily KQT member 2 (Rattus norvegicus) is -22.2

The measured activity change, less the hit threshold that "Cc1cc([N+](=O)[O-])nn1CC(=O)Nc1ccc(Cl)cn1" showed for Potassium voltage-gated channel subfamily KQT member 2 (Rattus norvegicus) is -1.2

The measured activity change, less the hit threshold that "CC(C)(C)c1ccc(Cn2nc(CC(=O)O)c3ccccc3c2=O)cc1" showed for Potassium voltage-gated channel subfamily KQT member 2 (Rattus norvegicus) is -4.4

The measured activity change, less the hit threshold that CNC(=O)NC(=O)C(C)N1CCN(C/C=C/c2ccccc2)CC1 (stereo unspecified) showed for Potassium voltage-gated channel subfamily KQT member 2 (Rattus norvegicus) is -19.2

---

# target.entity: Potassium voltage-gated channel subfamily KQT member 2 (Rattus norvegicus)
# assay.explanation: KCNQ2 potentiation in CHO cells – cell-based, FluxOR thallium flux, counter-screen for hERG block protector project, confirmation (AID 1942);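 further: normalized value minus buffer-control mean plus three SD of buffer wells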
# assay.setup: FluxOR thallium flux fluorescence, at 10 µM, stronger effect = higher value
About 580 (24%) of roughly 2,400 compounds were called active. A selection follows.
Criterion: activity change, less the hit threshold meeting or surpassing -20%. Met: Satisfied. Not met: Not satisfied.

// query Could you please find out whether "Cc1cccc(N2CCN(C(=O)Cc3c(C(=O)O)[nH]c4ccc(Cl)cc34)CC2)c1C" has activity change, less the hit threshold that meets -20% or exceeds it?
// result Satisfied

// query Could you please find out whether "O=C(Nc1nc(-c2ccccc2)c(-c2ccccc2)o1)c1ccc(F)cc1" has activity change, less the hit threshold that meets -20% or exceeds it?
// result Satisfied

// query Could you please find out whether COCCOC(=O)C1=C(C)Nc2ncnn2C1c1ccc(F)cc1 (stereo unspecified) has activity change, less the hit threshold that meets -20% or exceeds it?
// result Not satisfied

// query Could you please find out whether "O=C(N=Nc1c(O)[nH]c2ccc([N+](=O)[O-])cc12)c1cc(-c2ccccc2Cl)nc2ccccc12" has activity change, less the hit threshold that meets -20% or exceeds it?
// result Satisfied

// query Could you please find out whether CC1=C(C#N)C(Nc2cc(C)ccn2)(C(F)(F)F)C(=O)N1 (stereo unspecified) has activity change, less the hit threshold that meets -20% or exceeds it?
// result Satisfied

// query Could you please find out whether "Cc1ccc(-c2nc(CSCC(=O)N3CCOCC3)c(C)o2)cc1" has activity change, less the hit threshold that meets -20% or exceeds it?
// result Not satisfied

// query Could you please find out whether "O=C(Nc1cccc2[nH]ncc12)c1ccc(F)cc1" has activity change, less the hit threshold that meets -20% or exceeds it?
// result Not satisfied

// query Could you please find out whether CC(=O)C1=C(C)NC(=O)NC1/C=C/c1ccccc1 (stereo unspecified) has activity change, less the hit threshold that meets -20% or exceeds it?
// result Not satisfied

// query Could you please find out whether O=C1C=C(c2ccccc2)OC(=O)C1C(=O)c1ccccc1 (stereo unspecified) has activity change, less the hit threshold that meets -20% or exceeds it?
// result Satisfied

// query Could you please find out whether "Cc1oc(-c2cccs2)nc1CN1CCC(C(=O)N2CCCC2)CC1" has activity change, less the hit threshold that meets -20% or exceeds it?
// result Satisfied

// query Could you please find out whether "CN(C)/C(=N\S(=O)(=O)c1ccccc1)c1ccc(F)cc1" has activity change, less the hit threshold that meets -20% or exceeds it?
// result Satisfied
